This collection of values is drawn from BindingDB's records for doi:10.1021/jm0613469.

molecular target: Type-2 angiotensin II receptor (Sus scrofa); assay: Displacement of [125I]Ang2 from AT2 receptor in pig uterus myometrial membrane
Residues, ends and D or L forms follow the SMILES beside them.
endpoint: Ki

                                   compound                                    system  observed_result
0  N[C@@H](Cc1cnc[nH]1)C(=O)N1CCC[C@H]1C(=O)N[C@@H](Cc1ccccc1)C(=O)O (H-His-Pro-Phe-OH)  Type-2 angiotensin II receptor (Sus scrofa)          > 10 µM
1  CC[C@@H](C)[C@H](NC(=O)[C@@H]1CCCN1C(=O)c1cccc(Cc2cnc[nH]2)c1)C(=O)O  Type-2 angiotensin II receptor (Sus scrofa)          > 10 µM

In plain terms, CC[C@@H](C)[C@H](NC(=O)[C@@H]1CCCN1C(=O)c1cccc(Cn2ccnc2)c1)C(=O)O has a documented Ki of > 10 µM

In plain terms, CC[C@@H](C)[C@H](NC(=O)c1cccc(Cn2ccnc2)c1)C(=O)O has a documented Ki of 0.0166 µM

In plain terms, O=C(O)[C@H](Cc1ccccc1)NC(=O)[C@@H]1CCCN1C(=O)c1cccc(Cn2ccnc2)c1 has a documented Ki of > 10 µM

In plain terms, CC(=O)N[C@@H](Cc1cnc[nH]1)C(=O)N1CCC[C@H]1C(=O)N[C@@H](Cc1ccccc1)C(=O)O (Ac-His-Pro-Phe-OH) has a documented Ki of > 10 µM

In plain terms, CC[C@H](C)[C@H](NC(=O)[C@@H]1CCCN1C(=O)[C@@H](N)Cc1cnc[nH]1)C(=O)O (H-His-Pro-Ile-OH) has a documented Ki of > 10 µM

In plain terms, O=C(O)[C@H](Cc1ccccc1)NC(=O)[C@@H]1CCCN1C(=O)c1cccc(Cc2cnc[nH]2)c1 has a documented Ki of > 10 µM

In plain terms, O=C(N[C@@H](Cc1ccccc1)C(=O)O)c1cccc(Cn2ccnc2)c1 has a documented Ki of 0.0375 µM
